test: HUVEC growth inhibition – cell-based, human, primary screen (AID 575); conditions: HUVEC proliferation, CellTiter-Glo luminescence, 72 h; at 10 µM; hits give low values;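 also: 100% = median of untreated cell wells with 0.1% DMSO on each plate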
Below is a list of entries, each paired with its recorded viability value.
Answer format: numeric, % implied, no suffix.

compound	viability, %
CC(=O)OC(C(=O)NC1CCCCC1)c1ccncc1 (stereo unspecified)	98
COc1ccc(CC(=O)OCn2nnc3ccccc3c2=O)cc1	90.5
CN(C)S(=O)(=O)c1cccc(C(=O)Nc2cccnc2)c1	83.9
O=C(CN1CCC(O)(c2ccc3c(c2)OCO3)CC1)OC1CCCCC1	103
O=C(NCCN1CCOCC1)C1CCC(=O)N1Cc1ccccc1Cl (stereo unspecified)	96.4

Attention now turns to another entry.
Find the recorded viability belonging to CNCCCN1c2ccccc2CCc2ccccc21 and report it. 82.1
